- Test system: COLO 205 colon
- Assay Details: NCI-60 one-dose screen, 48 h
- Test Settings: 10 µM unless noted
The panel holds about 83,000 compounds, 20% with a hit somewhere; the sample as a whole holds those more often. Activity calls are given as the source filed them. The calls were made as follows: active = growth percent below 10; inactive = the rest.
Outcome codes: active, inactive

>  <Molecule>
C#CC#CC#CC#CC#CC#CC#CC#CCC1OC[C@H](COC(=O)O[C@@H](C(=O)O[C@H]2C[C@@]3(O)[C@@H](OC(=O)c4ccccc4)[C@@H]4[C@]5(OC(C)=O)CO[C@@H]5C[C@H](O)[C@@]4(C)C(=O)[C@H](OC(C)=O)C(=C2C)C3(C)C)[C@@H](NC(=O)c2ccccc2)c2ccccc2)O1 (stereo not given in full)

>  <Discrete Label>
inactive

$$$$
>  <Molecule>
COc1cc(Cl)c(C)cc1NC(=O)c1cc2ccccc2cc1O

>  <Discrete Label>
inactive

$$$$
>  <Molecule>
C/C(=N\O)c1ccc(NC(=O)CSc2nnc(-c3cc(-c4ccc(S(C)(=O)=O)cc4)nc4ccccc34)n2-c2ccccc2)cc1

>  <Discrete Label>
inactive

$$$$
>  <Molecule>
C=C(CNCCO)[C@@H]1CC[C@]2(CO)CC[C@]3(C)[C@H](CC[C@@H]4[C@@]5(C)CCC(N)C(C)(C)[C@@H]5CC[C@]43C)[C@@H]12 (stereo not given in full)

>  <Discrete Label>
active

$$$$
>  <Molecule>
CC(=O)O[C@H]1C[C@@H]2C(C)(C)C(=O)CC[C@@]2(C)c2ccc(C(C)C)cc21

>  <Discrete Label>
inactive

$$$$
>  <Molecule>
CNC(C)[C@H]1CCC2C3CC=C4C(=O)[C@@H](NC(=O)C=C(C)C)CC[C@]4(C)C3CC[C@@]21C (stereo not given in full)

>  <Discrete Label>
active

$$$$
>  <Molecule>
C/C(=N\O)[C@@H]1CC[C@]2(CO)CC[C@]3(C)[C@H](CC[C@@H]4[C@@]5(C)CCCNC(C)(C)[C@@H]5CC[C@]43C)[C@@H]12

>  <Discrete Label>
inactive

$$$$
>  <Molecule>
C=C1CC[C@@H]2[C@](C)(COC(C)=O)[C@H](OC(C)=O)CC[C@@]2(C)[C@@H]1CC(Nc1ccc(S(=O)(=O)NC(C)=O)cc1)C1=CCOC1=O (stereo not given in full)

>  <Discrete Label>
active

$$$$
>  <Molecule>
C=C1C(=O)O[C@H]2[C@H]1CC/C(COC(=O)c1cc3cc(Cl)ccc3[nH]1)=C\CC[C@@]1(C)O[C@@H]21

>  <Discrete Label>
active

$$$$
>  <Molecule>
CC/C=C\C[C@H](O)C/C=C1/C(=O)C=C[C@@H]1C/C=C\CCCC(=O)O

>  <Discrete Label>
inactive

$$$$
>  <Molecule>
CC(=O)ON1CCCC(P(=O)(OCCSC(=O)C(C)(C)C)OCCSC(=O)C(C)(C)C)C1=O (stereo not given)

>  <Discrete Label>
inactive

$$$$
>  <Molecule>
O=C1/C(=C\c2ccccn2)c2ccccc2N1c1c(Cl)cccc1Cl

>  <Discrete Label>
active

$$$$
>  <Molecule>
COC(=O)c1ccc(NC(=O)Nc2ccc(C(=O)OC)cc2)cc1

>  <Discrete Label>
inactive

$$$$
>  <Molecule>
COc1ccccc1C(=O)Nc1cccc(NC(=O)c2ccoc2C)c1

>  <Discrete Label>
inactive

$$$$
>  <Molecule>
COc1cc(-c2nc3c(ncc4ccc(=O)n(-c5ccccc5)c43)s2)cc(OC)c1OC

>  <Discrete Label>
inactive

$$$$

These data points were gathered from PubChem BioAssay (NCI).
